# SYSTEM: T1, IL-11R on STAT3 Reporter (Luciferase)-HEK293 cells (UniProt Q14626 23-422)
# T1 sequence (looked up): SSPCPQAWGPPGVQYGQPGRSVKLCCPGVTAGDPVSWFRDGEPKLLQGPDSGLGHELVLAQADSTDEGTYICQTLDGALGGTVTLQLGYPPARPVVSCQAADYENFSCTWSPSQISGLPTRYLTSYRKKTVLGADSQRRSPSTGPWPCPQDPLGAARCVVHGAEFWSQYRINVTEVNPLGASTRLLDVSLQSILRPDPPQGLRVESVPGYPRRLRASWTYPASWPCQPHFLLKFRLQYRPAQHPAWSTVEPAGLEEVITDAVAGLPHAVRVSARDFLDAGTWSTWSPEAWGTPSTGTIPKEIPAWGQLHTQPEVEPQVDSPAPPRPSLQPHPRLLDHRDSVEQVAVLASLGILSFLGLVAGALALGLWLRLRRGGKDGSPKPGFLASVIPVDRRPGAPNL
# PROCEDURE_TEXT: cell-based or functional assay
Catalogue of IC50, STAT3 luciferase reporter assay (HEK293), inhibiting IL-11, Mean readings, one per entry.
Give the value in µg/mL but do not write µg/mL after it.

[[record]]
binder = "mAb8 (antibody, V domains shown, Expressed as human IgG4 (S228P EU)) VH: EVQLLESGGGLVQPGGSLRLSCAASGFTFSSYAMSWVRQAPGKGLEWVSSIVPYGDLTQYADSVKGRFTISRDNSKNTLYLQMNSLRAEDTAVYYCAKGPGWGSFDLWGRGTLVTVSS VL: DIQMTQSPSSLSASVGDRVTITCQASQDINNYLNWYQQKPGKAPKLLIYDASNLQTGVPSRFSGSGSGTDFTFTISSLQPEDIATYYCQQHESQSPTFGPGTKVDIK"
result_unit = "µg/mL"
experimental_result = 0.96


We now examine a further binder.
Q: Which IC50, STAT3 luciferase reporter assay (HEK293), inhibiting IL-11, Mean value belongs to mAb7 (antibody, V domains shown, Expressed as human IgG4 (S228P EU)) VH: EVQLLESGGGLVQPGGSLRLSCAASGFTFSNYAMSWVRQAPGKGLEWVSSIVPYGDLTQYADSVKGRFTISRDNSKNTLYLQMNSLRAEDTAVYYCAKGPGWGSFDLWGRGTLVTVSS VL: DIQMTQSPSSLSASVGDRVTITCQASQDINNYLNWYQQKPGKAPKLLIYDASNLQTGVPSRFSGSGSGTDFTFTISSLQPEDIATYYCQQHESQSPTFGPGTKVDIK ?
Ans: 1
